Kindly state inhibition for each of the entries shown.
assay: CRL1545 cell growth, single agent and combined, cisplatin and BGB IC20 combos (AID 1671464); settings: CRL1545 osteosarcoma cells, single agent, at 0.05 µM, stronger effect = higher value;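 also: cells exposed to compound for 96 hours before readout; 0% = vehicle DMSO and 100% = high DMSO killing control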
Answers are plain numbers, in %.

Examples with answers:
{"MOLECULE": "COc1cccc2c1C(=O)c1c(O)c3c(c(O)c1C2=O)CC(O)(C(=O)CO)CC3OC1CC(N)C(OC2CCCCO2)C(C)O1 (stereo not given)", "inhibition / %": -29.5}
{"MOLECULE": "NC(=S)NN=Cc1ncccc1N", "inhibition / %": 29.3}
{"MOLECULE": "CC(C)OC(=O)[C@H](C)NP(=O)(OC[C@H]1O[C@@H](n2ccc(=O)[nH]c2=O)C(C)(F)[C@@H]1O)Oc1ccccc1 (stereo not given in full)", "inhibition / %": 7.91}

Give one value of inhibition per listed molecule.
1. Cc1ccc(NC(=O)CCCCCC(=O)Nc2ccccc2N)cc1
2. Cc1cn(C2C=CC(CO)O2)c(=O)[nH]c1=O (stereo not given)

1. -29
2. -24.2

Return reported inhibition values for all items listed beneath this line.
1. Cc1ccc([N+](=O)[O-])cc1S(=O)(=O)N(C)/N=C\c1cnc2ccc(Br)cn12
2. CCC(C)C(=O)OC1CC(C)C=C2C=CC(C)C(CCC3CC(O)CC(=O)O3)C21 (stereo not given)
3. C=C1CCC(O)CC1=CC=C1CCCC2(C)C1CCC2C(C)C=CC(C)C(C)C (stereo not given)

-77.2
-12.7
37.2

Answer for every listed entry: what is its inhibition? The entries follow.
1. NC(=O)c1cccc2[nH]c(-c3ccc(C4CCCN4)cc3F)nc12 (stereo not given)
2. CCC(Sc1nnc2c3ccccc3n(CC)c2n1)C(=O)Nc1ccccc1OC (stereo not given)

1: 27.4; 2: -16.5
